# ASSAY SYSTEM: T1, AFP158/HLA-A*02:01 complex (human)
# T1 construct: biotinylated on the BSP by BirA for ELISA and panning; also called biotinylated AFP158/HLA-A*02:01 complex; Bio-AFP158
# PROTOCOL DESCRIPTION: SPR; vs AS170036 VL1VH1;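 also: crude scFv captured on sensor chip, peptide–HLA complex flowed over at several concentrations, KD estimated from association and dissociation kinetic rates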
OUTCOME MEASURE: Affinity increase
Units required after the number.

>>> observed("AS170036 VL1VH1 HF101W (scFv) scFv: QSALTQPRSVSGSPGQSVTISCAGTSSDVGSENYVSWYQQHPGKAPKLMIYQVNKRASGVPDRFSGSKSGNTASLTISGLQAEDEADYYCASYRSSDHNIVFGGGTKLTVLGGGGSGGGGSGGGGSEVQLVESGGGLVQPGGSLRLSCAASGFTFSSYAMSWVRQAPGKGLEWVSTINSGTGSPYYADSVKGRFTISRDNSKNTLYLQMNSLRAEDTAVYYCAKNFWDGSWFLGPPAMDYWGQGTLVTVSSHHHHHH")
"0.8 fold"

[Q] Which Affinity increase value is on record for AS170036 VL1VH1 HP109N (scFv) scFv: QSALTQPRSVSGSPGQSVTISCAGTSSDVGSENYVSWYQQHPGKAPKLMIYQVNKRASGVPDRFSGSKSGNTASLTISGLQAEDEADYYCASYRSSDHNIVFGGGTKLTVLGGGGSGGGGSGGGGSEVQLVESGGGLVQPGGSLRLSCAASGFTFSSYAMSWVRQAPGKGLEWVSTINSGTGSPYYADSVKGRFTISRDNSKNTLYLQMNSLRAEDTAVYYCAKNFFDGSWFLGNPAMDYWGQGTLVTVSSHHHHHH ?
[A] 0.1 fold

[Q] Now the binder AS170036 VL1VH1 HW105F (scFv) scFv: QSALTQPRSVSGSPGQSVTISCAGTSSDVGSENYVSWYQQHPGKAPKLMIYQVNKRASGVPDRFSGSKSGNTASLTISGLQAEDEADYYCASYRSSDHNIVFGGGTKLTVLGGGGSGGGGSGGGGSEVQLVESGGGLVQPGGSLRLSCAASGFTFSSYAMSWVRQAPGKGLEWVSTINSGTGSPYYADSVKGRFTISRDNSKNTLYLQMNSLRAEDTAVYYCAKNFFDGSFFLGPPAMDYWGQGTLVTVSSHHHHHH
[A] 0.2 fold
